Assign one-hybrid fitness for binding NBS DNA to each entry below.
B1: Caulobacter ParB omega fusion; a variant is named by its letters at X, in order, B8GW30 (parent)
chain: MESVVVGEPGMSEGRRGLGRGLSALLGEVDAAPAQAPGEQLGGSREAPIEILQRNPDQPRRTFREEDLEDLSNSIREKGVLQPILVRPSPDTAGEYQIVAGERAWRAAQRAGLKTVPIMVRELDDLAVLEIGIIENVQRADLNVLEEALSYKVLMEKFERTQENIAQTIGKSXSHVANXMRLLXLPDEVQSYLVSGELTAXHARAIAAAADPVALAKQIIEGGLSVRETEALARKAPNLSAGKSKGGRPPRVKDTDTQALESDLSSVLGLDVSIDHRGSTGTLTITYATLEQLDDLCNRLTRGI

Variants of: B1
Assay: one-hybrid fitness for binding NBS DNA (the Noc-binding site; scaled: cognate 1, non-cognate 0); higher = stronger binding
Settings: with NBS DNA site
In all, about 81,000 sequences were measured (“one-hybrid fitness for binding NBS DNA”: median about -0.1, highest 2% from about 0.36 on). Shown is part of a subset that was picked to be rich in the highest values.

Some solved entries appear below for comparison.
> print(dat)
   mutant.label                            assay.metric  test.result
1          CRYR  one-hybrid fitness for binding NBS DNA        ≤ 0.2
2          CCKR  one-hybrid fitness for binding NBS DNA        ≤ 0.2

Report one-hybrid fitness for binding NBS DNA for each item below.
1. LDTD
2. LCGR
3. QSYH
4. QSRH

Marked response:
≤ 0.2
≤ 0.2
≤ 0.2
0.535

Give measured one-hybrid fitness for binding NBS DNA for every item shown.
1. RCAY
2. RRFY
3. RSSY

Marked response:
≤ 0.2
0.314
≤ 0.2

Taken from a collection of fitness landscapes (doi:10.1016/j.celrep.2020.107928).
